system: Pseudomonas aeruginosa; test: Antibacterial activity against colistin-sensitive Pseudomonas aeruginosa after 24 hrs by microbroth dilution method; assay type: functional
Each entry below carries its reported MIC.
Quick reminder: number only, in µg/mL, skip the unit.

{"compound-string": "C[C@@H](NCCCCCCCCCCCCN)[C@H]1CC[C@H]2[C@@H]3CCC4=C[C@@H](NCCCCCCCCCCCCN)CC[C@]4(C)[C@H]3CC[C@]12C", "MIC / µg/mL": 40}

Write down MIC measured for item NC[C@H]1O[C@H](O[C@H]2[C@H](O)[C@@H](O[C@H]3O[C@H](CO)[C@@H](O)[C@H](N)[C@H]3O)[C@H](N)C[C@@H]2N)[C@H](N)C[C@@H]1O
5

Name the recorded MIC of the item C[C@@H](NCCCCN)[C@H]1CC[C@H]2[C@@H]3CCC4=C[C@@H](NCCCCN)CC[C@]4(C)[C@H]3CC[C@]12C in your answer.
20

Name the recorded MIC of the compound listed here: C[C@@H](NCCN)[C@H]1CC[C@H]2[C@@H]3CCC4=C[C@@H](NCCN)CC[C@]4(C)[C@H]3CC[C@]12C
20

Respond only with MIC recorded for C[C@@H](NCCCCCCCCCN)[C@H]1CC[C@H]2[C@@H]3CCC4=C[C@@H](NCCCCCCCCCN)CC[C@]4(C)[C@H]3CC[C@]12C
40

Name the recorded MIC of the item C[C@@H](NCCCCCN)[C@H]1CC[C@H]2[C@@H]3CCC4=C[C@@H](NCCCCCN)CC[C@]4(C)[C@H]3CC[C@]12C in your answer.
20

Annotate the compound C[C@@H](NCCCCCCCN)[C@H]1CC[C@H]2[C@@H]3CCC4=C[C@@H](NCCCCCCCN)CC[C@]4(C)[C@H]3CC[C@]12C with its measured MIC.
10

---

system: Staphylococcus aureus; test: Antibacterial activity against Staphylococcus aureus after 24 hrs by microbroth dilution method; assay type: functional
property: log10 of MIC (log10 of the value in mg/L)
Record value = log10 of MIC given in mg/L.

Example entries and their recorded answers appear below.
{"compound": "C[C@@H](NCCCCCCN)[C@H]1CC[C@H]2[C@@H]3CCC4=C[C@@H](NCCCCCCN)CC[C@]4(C)[C@H]3CC[C@]12C", "system": "Staphylococcus aureus", "log10 of MIC": 0.40}
{"compound": "C[C@@H](NCCCN)[C@H]1CC[C@H]2[C@@H]3CCC4=C[C@@H](NCCCN)CC[C@]4(C)[C@H]3CC[C@]12C", "system": "Staphylococcus aureus", "log10 of MIC": 1.00}
{"compound": "NC[C@H]1O[C@H](O[C@H]2[C@H](O)[C@@H](O[C@H]3O[C@H](CO)[C@@H](O)[C@H](N)[C@H]3O)[C@H](N)C[C@@H]2N)[C@H](N)C[C@@H]1O [TOBRAMYCIN]", "system": "Staphylococcus aureus", "log10 of MIC": 0.10}
{"compound": "C[C@@H](NCCCCCCCCCN)[C@H]1CC[C@H]2[C@@H]3CCC4=C[C@@H](NCCCCCCCCCN)CC[C@]4(C)[C@H]3CC[C@]12C", "system": "Staphylococcus aureus", "log10 of MIC": 0.70}

Give log10 of MIC for the following compound: C[C@@H](NCCN)[C@H]1CC[C@H]2[C@@H]3CCC4=C[C@@H](NCCN)CC[C@]4(C)[C@H]3CC[C@]12C
1.30

Please give the documented log10 of MIC of C[C@@H](NCCCCCCCN)[C@H]1CC[C@H]2[C@@H]3CCC4=C[C@@H](NCCCCCCCN)CC[C@]4(C)[C@H]3CC[C@]12C
0.40

Kindly indicate its recorded log10 of MIC. Item: C[C@@H](NCCCCCCCCCCCCN)[C@H]1CC[C@H]2[C@@H]3CCC4=C[C@@H](NCCCCCCCCCCCCN)CC[C@]4(C)[C@H]3CC[C@]12C
1.00

Look up log10 of MIC of C[C@@H](NCCCCCN)[C@H]1CC[C@H]2[C@@H]3CCC4=C[C@@H](NCCCCCN)CC[C@]4(C)[C@H]3CC[C@]12C and report it.
0.70

Hello, please tell me recorded log10 of MIC for this one: C[C@@H](NCCCCCCCCN)[C@H]1CC[C@H]2[C@@H]3CCC4=C[C@@H](NCCCCCCCCN)CC[C@]4(C)[C@H]3CC[C@]12C
0.40
